// pIC50 collected for Beta-galactosidase (Bos taurus, UniProt Q58D55)
pIC50: −log10 of the molar value.

compound	assay-system	measured
CO[C@@H]1CC2COC(C1O)[C@H]2NC1CC(CO)C(O)C(O)C1O (some centres not stated)	Beta-galactosidase (Bos taurus, UniProt Q58D55)	< 3.00

## Input # get_value(readout='pIC50', item= "N[C@H]1C[C@H](CO)[C@@H](O)[C@H](O)[C@H]1O" )
## Output < 3.00
